biological target: human Nav 1.8 (Homo sapiens, UniProt Q9Y5Y9); test: E-VIPR assay detecting and measuring Nav inhibition (HEK cells expressing truncated human Nav 1.8); type: cell-based; conditions: in the Presence of Human Serum in the E-VIPR Assay; read-out: IC50
Sequence (Q9Y5Y9 whole entry, looked up, the tested form may be a part): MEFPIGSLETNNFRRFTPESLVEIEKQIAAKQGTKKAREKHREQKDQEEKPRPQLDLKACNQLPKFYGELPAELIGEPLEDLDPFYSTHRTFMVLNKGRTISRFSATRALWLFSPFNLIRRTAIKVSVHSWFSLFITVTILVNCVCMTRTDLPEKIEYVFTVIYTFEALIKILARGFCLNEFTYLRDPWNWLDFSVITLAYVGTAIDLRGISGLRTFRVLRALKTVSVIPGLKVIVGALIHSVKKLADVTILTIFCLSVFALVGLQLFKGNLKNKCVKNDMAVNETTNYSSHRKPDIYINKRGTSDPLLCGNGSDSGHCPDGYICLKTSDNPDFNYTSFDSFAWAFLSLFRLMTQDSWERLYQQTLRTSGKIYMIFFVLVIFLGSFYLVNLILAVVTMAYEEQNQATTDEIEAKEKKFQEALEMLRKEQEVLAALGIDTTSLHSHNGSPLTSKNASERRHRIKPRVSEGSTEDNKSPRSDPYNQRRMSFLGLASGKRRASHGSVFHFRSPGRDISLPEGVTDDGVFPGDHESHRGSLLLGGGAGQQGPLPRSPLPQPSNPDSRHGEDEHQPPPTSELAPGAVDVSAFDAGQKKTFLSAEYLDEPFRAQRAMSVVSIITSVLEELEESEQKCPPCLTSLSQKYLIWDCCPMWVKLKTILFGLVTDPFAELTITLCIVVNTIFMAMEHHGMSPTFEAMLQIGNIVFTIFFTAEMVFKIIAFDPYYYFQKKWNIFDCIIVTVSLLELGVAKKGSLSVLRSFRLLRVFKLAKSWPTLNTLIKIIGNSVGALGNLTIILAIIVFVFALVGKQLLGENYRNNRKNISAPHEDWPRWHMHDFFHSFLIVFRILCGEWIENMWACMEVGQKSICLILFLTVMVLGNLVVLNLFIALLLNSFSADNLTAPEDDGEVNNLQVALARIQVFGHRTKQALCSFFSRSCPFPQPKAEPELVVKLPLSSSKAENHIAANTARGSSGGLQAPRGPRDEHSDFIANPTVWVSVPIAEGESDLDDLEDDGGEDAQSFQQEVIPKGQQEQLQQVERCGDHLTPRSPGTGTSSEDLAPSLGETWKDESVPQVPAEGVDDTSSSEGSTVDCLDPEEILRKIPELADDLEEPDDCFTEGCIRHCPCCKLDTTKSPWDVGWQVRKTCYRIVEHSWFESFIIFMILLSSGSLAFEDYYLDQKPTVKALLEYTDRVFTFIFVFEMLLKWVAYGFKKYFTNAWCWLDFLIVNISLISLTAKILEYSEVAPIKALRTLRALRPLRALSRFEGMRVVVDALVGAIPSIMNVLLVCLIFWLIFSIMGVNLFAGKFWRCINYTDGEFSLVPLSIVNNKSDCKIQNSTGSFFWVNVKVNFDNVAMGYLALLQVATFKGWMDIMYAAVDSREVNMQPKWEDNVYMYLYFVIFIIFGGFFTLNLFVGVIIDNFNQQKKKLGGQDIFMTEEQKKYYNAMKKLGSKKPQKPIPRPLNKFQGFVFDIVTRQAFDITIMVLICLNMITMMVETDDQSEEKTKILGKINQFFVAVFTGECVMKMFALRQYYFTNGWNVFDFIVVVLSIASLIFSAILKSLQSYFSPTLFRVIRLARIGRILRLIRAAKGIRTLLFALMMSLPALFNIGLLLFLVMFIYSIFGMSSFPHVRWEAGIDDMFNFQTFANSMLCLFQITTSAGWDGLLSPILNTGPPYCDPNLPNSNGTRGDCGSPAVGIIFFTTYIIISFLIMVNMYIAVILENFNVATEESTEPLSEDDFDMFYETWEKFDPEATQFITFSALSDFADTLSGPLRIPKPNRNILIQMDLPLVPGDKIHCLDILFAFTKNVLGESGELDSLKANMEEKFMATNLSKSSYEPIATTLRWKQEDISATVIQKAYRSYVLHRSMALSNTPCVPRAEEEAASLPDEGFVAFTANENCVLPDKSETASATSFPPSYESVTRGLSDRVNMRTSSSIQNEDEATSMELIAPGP
pIC50: −log10 of the molar value.
recorded_metric: pIC50

Example entries begin here.
COc1c([C@@H]2[C@@H](C)C(C)(C)O[C@H]2C(=O)Nc2ccnc(C(N)=O)c2)ccc(F)c1F (single isomer, unassigned) [Compound 103] | < 6.00
CNC(=O)c1cc(NC(=O)[C@@H]2O[C@](C)(C(F)(F)F)[C@@H](C)[C@H]2c2ccc(F)c(F)c2OC(F)F)ccn1 (stereo in doubt) [Compound 12] | < 6.00
CCc1c(F)ccc([C@@H]2C[C@](C)(C(F)(F)F)O[C@H]2C(=O)Nc2ccnc(C(N)=O)c2)c1OC (single isomer, unassigned) [Compound 78] | 7.00 to 8.00
CCOc1c([C@H]2[C@H](C(=O)Nc3cc[n+]([O-])c(C(N)=O)c3)O[C@@](C)(C(F)(F)F)[C@H]2C)ccc(F)c1F [Compound 55] | > 8.00
C[C@]1(C(F)(F)F)C[C@@H](c2ccc(F)cc2OC(F)F)[C@H](C(=O)Nc2ccnc(C(N)=O)c2)O1 [compound 74] | 7.00 to 8.00

The reported value for COc1c([C@H]2[C@H](C(=O)Nc3ccnc(C(N)=O)c3)O[C@@](C)(C(F)F)[C@H]2C)ccc(F)c1F (stereo in doubt) [Compound 99] in terms of pIC50 is < 6.00
